Target: human GPR10 (Homo sapiens (Human), UniProt P49683)
Sequence (P49683 whole entry): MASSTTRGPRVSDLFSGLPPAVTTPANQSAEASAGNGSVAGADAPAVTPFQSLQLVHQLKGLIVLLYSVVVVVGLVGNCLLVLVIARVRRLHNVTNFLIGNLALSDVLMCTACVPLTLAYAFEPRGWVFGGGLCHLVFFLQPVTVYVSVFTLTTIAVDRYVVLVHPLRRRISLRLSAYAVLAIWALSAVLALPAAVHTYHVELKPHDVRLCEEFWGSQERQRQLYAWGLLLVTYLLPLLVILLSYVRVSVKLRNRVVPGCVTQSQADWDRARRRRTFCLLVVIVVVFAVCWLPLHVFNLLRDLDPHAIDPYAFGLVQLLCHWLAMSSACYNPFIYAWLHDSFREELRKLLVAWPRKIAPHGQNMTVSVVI
Experiment: Antagonistic activity on PrRP-induced intracellular calcium mobilization in human GPR10-expressing HEK293 cells
Settings: PrRP 1 nM-induced intracellular calcium mobilization, Fluo-8
Where a name gives a salt, the structure may show the parent alone.
Parameter: pIC50. Scope: all listed entries.
pIC50 here: minus log base 10 of the concentration, concentration in moles per litre.

Look up pIC50 for this molecule: CC#CCn1c(N[C@@H](C)c2ccc(C(F)(F)F)cc2)nc2c(c1=O)CN(C(=O)c1ccc(-c3cnco3)cc1)CC2 [Example 2410, hydrochloride] 6.18

Which pIC50 is reported for this molecule? CC#CCn1c(N[C@@H](C)c2ccc(C(F)(F)F)cc2)nc2c(c1=O)CN(C(=O)c1ccc(Cl)cc1)CC2 [Example 2409, hydrochloride] 5.61

Form field: reported pIC50 of C[C@H](Nc1nc2c(c(=O)n1N(C)C)CN(C(=O)c1c(F)cc(F)cc1F)CC2)c1ccc(C(F)(F)F)cc1 [Example 2484, hydrochloride] 6.67

What does the record list as pIC50 for C[C@H](Nc1nc2c(c(=O)n1N1CCOCC1)CN(C(=O)c1ccc(C#N)cc1)CC2)c1ccc(C(F)(F)F)cc1 [Example 2432, hydrochloride] ? 6.62

Give its pIC50 value. Item: COn1c(N[C@@H](C)c2ccc(Cl)cc2)nc2c(c1=O)CN(C(=O)c1ccc(Cl)cc1)CC2 6.69

GET /values?readout=pIC50&item= C#CCn1c(N[C@@H](C)c2ccc(Cl)cc2)nc2c(c1=O)CN(C(=O)c1ccc(Cl)cc1)CC2 5.76

For the molecule COc1ccc(C(=O)N2CCc3nc(N[C@@H](C)c4ccc(C(F)(F)F)cc4)n(OC)c(=O)c3C2)c(OC)n1 , what pIC50 is on record? 6.64

Data origin: patent US9206173B2
